- TARGET_ENTITY: α7 nAChR (Homo sapiens, UniProt P36544)
- Construct: expressed in transfected cells; host or cells: Xenopus oocytes (cRNA injection)
- Sequence (P36544 23-502): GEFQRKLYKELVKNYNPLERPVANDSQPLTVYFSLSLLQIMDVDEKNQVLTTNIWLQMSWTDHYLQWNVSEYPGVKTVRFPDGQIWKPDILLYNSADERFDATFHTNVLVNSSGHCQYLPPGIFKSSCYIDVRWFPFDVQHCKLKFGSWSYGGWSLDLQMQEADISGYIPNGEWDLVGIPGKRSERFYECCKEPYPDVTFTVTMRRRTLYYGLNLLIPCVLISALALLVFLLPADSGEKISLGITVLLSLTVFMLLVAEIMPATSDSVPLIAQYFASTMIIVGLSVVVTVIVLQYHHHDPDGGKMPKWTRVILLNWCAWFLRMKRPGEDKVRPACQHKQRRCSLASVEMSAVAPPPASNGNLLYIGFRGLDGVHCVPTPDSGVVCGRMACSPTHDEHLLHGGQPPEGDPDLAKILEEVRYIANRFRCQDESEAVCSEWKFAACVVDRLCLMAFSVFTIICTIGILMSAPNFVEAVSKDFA
- PROTOCOL_DESCRIPTION: α7 nAChR positive allosteric modulator activity assay, voltage clamp in Xenopus oocytes with 100 μM ACh
- Type: cell-based
- SETTINGS: at 10 μM compound; current induced by 100 μM ACh; Xenopus oocytes expressing α7 nAChR; read-out: Max Mod (%, at 10 μM)
TEST_READOUT: activity at 10 µM (%)

Here is how some compounds turned out for activity at 10 µM.
>>> experimental_value("Cc1cccc(Cl)c1-n1cnc2nc(Nc3cccc(F)c3)sc2c1=O [JWX-A1214]")
450
>>> experimental_value("Cc1cccc(Cl)c1-n1cnc2nc(N(C)c3ccccc3)sc2c1=O [JWX-A1114]")
150
>>> experimental_value("Cc1ccccc1Nc1nc2ncn(-c3c(C)cccc3Cl)c(=O)c2s1 [JWX-A0602]")
300
>>> experimental_value("Cc1nc(Nc2nc3ncn(-c4c(C)cccc4Cl)c(=O)c3s2)cc(N2CCN(C)CC2)n1 [JWX-A1022]")
110
>>> experimental_value("Cc1cccc(Cl)c1-n1cnc2nc(Nc3ccc(Br)cc3)sc2c1=O [JWX-A1105]")
150
>>> experimental_value("Cc1cccc(Cl)c1-n1cnc2nc(O)sc2c1=O [JWX-A0903]")
110
>>> experimental_value("Cc1cccc(CSc2nc3ncn(-c4c(C)cccc4Cl)c(=O)c3s2)c1 [LYH150324-3Me]")
230
>>> experimental_value("COc1ccc(C(=O)Nc2nc3ncn(-c4c(C)cccc4Cl)c(=O)c3s2)cc1 [JWX-A0312]")
630
>>> experimental_value("Cc1ccc(Nc2nc3ncn(-c4c(C)cccc4F)c(=O)c3s2)cc1F [JWX-A-C0111]")
110
>>> experimental_value("Cc1cccc(Cl)c1-n1cnc2nc(Nc3ccccc3)sc2c1=O [JWX-A0824]")
300

A: Cc1cccc(Cl)c1-n1cnc2nc(NC(=O)c3ccc(Br)cc3)sc2c1=O [JWX-A-C1122]
B: Cc1ccc(C(=O)Nc2nc3ncn(-c4c(C)cccc4Cl)c(=O)c3s2)cc1 [JWX-A0310]
In: Between item A and item B , which reported activity at 10 µM is smaller? Your answer should be the label attached to the chosen record.
Out: B
(B: 450%, A: 1000%)

a: Cc1cc(C)c(-n2cnc3nc(Nc4ccccn4)sc3c2=O)c(C)c1 [LD286]
b: Cc1cccc(Cl)c1-n1cnc2nc(SCc3ccccc3F)sc2c1=O [LYH150309-2F]
c: Cc1cccc(Cl)c1-n1cnc2nc(Nc3cccc(Br)c3)sc2c1=O [JWX-A1113]
d: Cc1cccc(Cl)c1-n1cnc2nc(NC(=O)c3ccc(Cl)cc3)sc2c1=O [JWX-A-C1020]
In: Ranking field: activity at 10 µM; order: falling. Answer format: the labels, ordered as requested.
Out: b, d, c, a
(b: 620%, d: 350%, c: 200%, a: 110%)

a: Cc1cccc(Cl)c1-n1cnc2nc(NCc3ccccc3)sc2c1=O [JWX-A1228]
b: Cc1cccc(Cl)c1-n1cnc2nc(SCc3ccc(F)cc3)sc2c1=O [LYH150312-4F]
c: Cc1cccc(Cl)c1-n1cnc2nc(Nc3ccc(OC(F)(F)F)cc3)sc2c1=O [JWX-A-C0901]
d: Cc1ccc(Nc2nc3ncn(-c4ccccc4Cl)c(=O)c3s2)cc1F [JWX-A-C0831]
In: Give the ascending ranking of the items by reported activity at 10 µM. Answer format: the labels, ordered as requested.
Out: a, c, d, b

a: CSc1nc2nnn(-c3c(Cl)cccc3Cl)c(=O)c2s1 [LD496]
b: Cc1cccc(Cl)c1-n1cnc2nc(SCc3cccc(F)c3)sc2c1=O [LYH150310-3F]
In: Hi, I'm comparing a with b and wondering which one has the bigger number for activity at 10 µM. Any idea? Your answer should be the label attached to the chosen record.
Out: b
